# Tested on: Mus musculus
# experiment description: In vitro determination of lactone level in mouse plasma after administration of compound at 1 hour
# Format: functional
property: Lactone (%)
The reply should be a number in %, with the unit left off.

[
  {
    "compound": "CCC(=O)O[C@]1(CC)C(=O)OCc2c1cc1n(c2=O)Cc2cc3c([N+](=O)[O-])cccc3nc2-1",
    "result number": 97.7
  },
  {
    "compound": "CC[C@@]1(O)C(=O)OCc2c1cc1n(c2=O)Cc2cc3c([N+](=O)[O-])cccc3nc2-1 [RUBITECAN]",
    "result number": 30
  },
  {
    "compound": "CC[C@@]1(O)C(=O)OCc2c1cc1n(c2=O)Cc2cc3ccccc3nc2-1 [CAMPTOTHECIN]",
    "result number": 42
  }
]

Attention now shifts to the item below.
Mus musculus / Lactone / CCC(=O)O[C@]1(CC)C(=O)OCc2c1cc1n(c2=O)Cc2cc3ccccc3nc2-1 [CAMPTOTHECIN-20-O-PROPIONATE] : value?
97.5
